Below, each of the molecules is paired with its reported relative viability value.
Test system: NCI-H1755
PROTOCOL_DESCRIPTION: relative viability (nuclei count vs DMSO), 5 days (fraction); higher = more cells survive
MEASUREMENT_CONDITIONS: first compound 0.253 µM
Quick one: just the number, no unit, thanks!

q: Give recorded relative viability. Nc1cccc2c1CN(C1CCC(=O)NC1=O)C2=O (stereo unspecified) [Lenalidomide] + CC(C)C[C@H](NC(=O)[C@H](Cc1ccccc1)NC(=O)c1cnccn1)B(O)O [Bortezomib] (partner 0.002 µM)
a: 0.855

q: Give recorded relative viability. Nc1cccc2c1CN(C1CCC(=O)NC1=O)C2=O (stereo unspecified) [Lenalidomide] + Nc1nc2[nH]cc(CCc3ccc(C(=O)N[C@@H](CCC(=O)O)C(=O)O)cc3)c2c(=O)[nH]1 [Pemetrexed] (partner 0.2 µM)
a: 0.441

q: Give recorded relative viability. Nc1cccc2c1CN(C1CCC(=O)NC1=O)C2=O (stereo unspecified) [Lenalidomide] + Cc1nc(NC(=O)N2CCC[C@H]2C(N)=O)sc1-c1ccnc(C(C)(C)C(F)(F)F)c1 [Alpelisib] (partner 2 µM)
a: 0.865

----------
Tested on: LCLC-97TM1
PROTOCOL_DESCRIPTION: relative viability (nuclei count vs DMSO), 5 days (fraction); higher = more cells survive
MEASUREMENT_CONDITIONS: first compound 0.8 µM
Below, each of the molecules is paired with its reported relative viability value.
Quick one: just the number, no unit, thanks!

These recorded examples may help you get a feel for the data.
q: Give recorded relative viability. Nc1cccc2c1CN(C1CCC(=O)NC1=O)C2=O (stereo not given) [Lenalidomide] + Nc1nc2[nH]cc(CCc3ccc(C(=O)N[C@@H](CCC(=O)O)C(=O)O)cc3)c2c(=O)[nH]1 [Pemetrexed] (partner 0.2 µM)
a: 0.151

q: Give recorded relative viability. Nc1cccc2c1CN(C1CCC(=O)NC1=O)C2=O (stereo not given) [Lenalidomide] + CS(=O)(=O)CCNCc1ccc(-c2ccc3ncnc(Nc4ccc(OCc5cccc(F)c5)c(Cl)c4)c3c2)o1 [Lapatinib] (partner 2 µM)
a: 0.602

q: Give recorded relative viability. Nc1cccc2c1CN(C1CCC(=O)NC1=O)C2=O (stereo not given) [Lenalidomide] + Cc1nc(Nc2ncc(C(=O)Nc3c(C)cccc3Cl)s2)cc(N2CCN(CCO)CC2)n1 [Dasatinib] (partner 0.075 µM)
a: 0.939

---
q: Give recorded relative viability. Nc1cccc2c1CN(C1CCC(=O)NC1=O)C2=O (stereo not given) [Lenalidomide] + O=C(c1cc(Cc2n[nH]c(=O)c3ccccc23)ccc1F)N1CCN(C(=O)C2CC2)CC1 [Olaparib] (partner 8 µM)
a: 0.38

q: Give recorded relative viability. Nc1cccc2c1CN(C1CCC(=O)NC1=O)C2=O (stereo not given) [Lenalidomide] + COc1cc2c(Oc3ccc(NC(=O)C4(C(=O)Nc5ccc(F)cc5)CC4)cc3F)ccnc2cc1OCCCN1CCOCC1 [Foretinib] (partner 0.25 µM)
a: 0.991

----------
Tested on: SW 1573
PROTOCOL_DESCRIPTION: relative viability (nuclei count vs DMSO), 5 days (fraction); higher = more cells survive
MEASUREMENT_CONDITIONS: first compound 0.002 µM
MEASUREMENT_LABEL: relative viability
Quick one: just the number, no unit, thanks!

q: Give recorded relative viability. CCNC(=O)c1noc(-c2cc(C(C)C)c(O)cc2O)c1-c1ccc(CN2CCOCC2)cc1 [Luminespib] + Cc1nc(NC(=O)N2CCC[C@H]2C(N)=O)sc1-c1ccnc(C(C)(C)C(F)(F)F)c1 [Alpelisib] (partner 2 µM)
a: 0.714

q: Give recorded relative viability. CCNC(=O)c1noc(-c2cc(C(C)C)c(O)cc2O)c1-c1ccc(CN2CCOCC2)cc1 [Luminespib] + C[C@@H](Oc1cc(-c2cnn(C3CCNCC3)c2)cnc1N)c1c(Cl)ccc(F)c1Cl [Crizotinib] (partner 1 µM)
a: 0.833

----------
Tested on: NCI-H647
PROTOCOL_DESCRIPTION: relative viability (nuclei count vs DMSO), 5 days (fraction); higher = more cells survive
MEASUREMENT_CONDITIONS: first compound 0.03162 µM
MEASUREMENT_LABEL: relative viability
Quick one: just the number, no unit, thanks!

q: Give recorded relative viability. Cc1cn(-c2cc(NC(=O)c3ccc(C)c(Nc4nccc(-c5cccnc5)n4)c3)cc(C(F)(F)F)c2)cn1 [Nilotinib] + C[C@@H](Oc1cc(-c2cnn(C3CCNCC3)c2)cnc1N)c1c(Cl)ccc(F)c1Cl [Crizotinib] (partner 1 µM)
a: 0.749

q: Give recorded relative viability. Cc1cn(-c2cc(NC(=O)c3ccc(C)c(Nc4nccc(-c5cccnc5)n4)c3)cc(C(F)(F)F)c2)cn1 [Nilotinib] + COc1cccc2cc(-c3nc([C@H]4CC[C@H](C(=O)O)CC4)n4ncnc(N)c34)[nH]c12 [OSI-027] (partner 0.5 µM)
a: 0.355

q: Give recorded relative viability. Cc1cn(-c2cc(NC(=O)c3ccc(C)c(Nc4nccc(-c5cccnc5)n4)c3)cc(C(F)(F)F)c2)cn1 [Nilotinib] + NC(=O)Nc1cc(-c2cccc(F)c2)sc1C(=O)N[C@H]1CCCNC1 [AZD7762] (partner 0.2 µM)
a: 0.285

q: Give recorded relative viability. Cc1cn(-c2cc(NC(=O)c3ccc(C)c(Nc4nccc(-c5cccnc5)n4)c3)cc(C(F)(F)F)c2)cn1 [Nilotinib] + Cc1nc(NC(=O)N2CCC[C@H]2C(N)=O)sc1-c1ccnc(C(C)(C)C(F)(F)F)c1 [Alpelisib] (partner 2 µM)
a: 0.958

// moving on: another record for relative viability
q: Give recorded relative viability. Cc1cn(-c2cc(NC(=O)c3ccc(C)c(Nc4nccc(-c5cccnc5)n4)c3)cc(C(F)(F)F)c2)cn1 [Nilotinib] + Nc1nc2[nH]cc(CCc3ccc(C(=O)N[C@@H](CCC(=O)O)C(=O)O)cc3)c2c(=O)[nH]1 [Pemetrexed] (partner 0.2 µM)
a: 0.138

----------
System: NCI-H1793
PROTOCOL_DESCRIPTION: relative viability (nuclei count vs DMSO), 5 days (fraction); higher = more cells survive
MEASUREMENT_CONDITIONS: first compound 0.002 µM
Below, each of the molecules is paired with its reported relative viability value.
Quick one: just the number, no unit, thanks!

q: Give recorded relative viability. CCNC(=O)c1noc(-c2cc(C(C)C)c(O)cc2O)c1-c1ccc(CN2CCOCC2)cc1 [Luminespib] + NC(=O)Nc1cc(-c2cccc(F)c2)sc1C(=O)N[C@H]1CCCNC1 [AZD7762] (partner 0.2 µM)
a: 0.406

q: Give recorded relative viability. CCNC(=O)c1noc(-c2cc(C(C)C)c(O)cc2O)c1-c1ccc(CN2CCOCC2)cc1 [Luminespib] + COc1cccc2cc(-c3nc([C@H]4CC[C@H](C(=O)O)CC4)n4ncnc(N)c34)[nH]c12 [OSI-027] (partner 0.5 µM)
a: 0.257

---
q: Give recorded relative viability. CCNC(=O)c1noc(-c2cc(C(C)C)c(O)cc2O)c1-c1ccc(CN2CCOCC2)cc1 [Luminespib] + CC(=O)c1c(C)c2cnc(Nc3ccc(N4CCNCC4)cn3)nc2n(C2CCCC2)c1=O [Palbociclib] (partner 0.5 µM)
a: 0.306

----------
Test system: SK-LU-1
PROTOCOL_DESCRIPTION: relative viability (nuclei count vs DMSO), 5 days (fraction); higher = more cells survive
MEASUREMENT_CONDITIONS: first compound 0.6325 µM
MEASUREMENT_LABEL: relative viability

These recorded examples may help you get a feel for the data.
q: Give recorded relative viability. CN1CCN(CCOc2cc(OC3CCOCC3)c3c(Nc4c(Cl)ccc5c4OCO5)ncnc3c2)CC1 [Saracatinib] + Nc1nc2[nH]cc(CCc3ccc(C(=O)N[C@@H](CCC(=O)O)C(=O)O)cc3)c2c(=O)[nH]1 [Pemetrexed] (partner 0.2 µM)
a: 0.654

q: Give recorded relative viability. Cc1csc(=NC2CCCCC2)n1/N=C/c1ccc(O)c(O)c1O [MIM1] + C[C@@H](Oc1cc(-c2cnn(C3CCNCC3)c2)cnc1N)c1c(Cl)ccc(F)c1Cl [Crizotinib] (partner 1 µM)
a: 0.895

q: Give recorded relative viability. Cc1csc(=NC2CCCCC2)n1/N=C/c1ccc(O)c(O)c1O [MIM1] + CC(=O)Nc1cccc(-n2c(=O)n(C3CC3)c(=O)c3c(Nc4ccc(I)cc4F)n(C)c(=O)c(C)c32)c1 [Trametinib] (partner 0.02 µM)
a: 0.528

// moving on: another record for relative viability
q: Give recorded relative viability. CN1CCN(CCOc2cc(OC3CCOCC3)c3c(Nc4c(Cl)ccc5c4OCO5)ncnc3c2)CC1 [Saracatinib] + Cc1nc(Nc2ncc(C(=O)Nc3c(C)cccc3Cl)s2)cc(N2CCN(CCO)CC2)n1 [Dasatinib] (partner 0.075 µM)
a: 0.138
